- System Tested: Poly [ADP-ribose] polymerase 1 (Homo sapiens)
- Sequence (P09874 whole entry): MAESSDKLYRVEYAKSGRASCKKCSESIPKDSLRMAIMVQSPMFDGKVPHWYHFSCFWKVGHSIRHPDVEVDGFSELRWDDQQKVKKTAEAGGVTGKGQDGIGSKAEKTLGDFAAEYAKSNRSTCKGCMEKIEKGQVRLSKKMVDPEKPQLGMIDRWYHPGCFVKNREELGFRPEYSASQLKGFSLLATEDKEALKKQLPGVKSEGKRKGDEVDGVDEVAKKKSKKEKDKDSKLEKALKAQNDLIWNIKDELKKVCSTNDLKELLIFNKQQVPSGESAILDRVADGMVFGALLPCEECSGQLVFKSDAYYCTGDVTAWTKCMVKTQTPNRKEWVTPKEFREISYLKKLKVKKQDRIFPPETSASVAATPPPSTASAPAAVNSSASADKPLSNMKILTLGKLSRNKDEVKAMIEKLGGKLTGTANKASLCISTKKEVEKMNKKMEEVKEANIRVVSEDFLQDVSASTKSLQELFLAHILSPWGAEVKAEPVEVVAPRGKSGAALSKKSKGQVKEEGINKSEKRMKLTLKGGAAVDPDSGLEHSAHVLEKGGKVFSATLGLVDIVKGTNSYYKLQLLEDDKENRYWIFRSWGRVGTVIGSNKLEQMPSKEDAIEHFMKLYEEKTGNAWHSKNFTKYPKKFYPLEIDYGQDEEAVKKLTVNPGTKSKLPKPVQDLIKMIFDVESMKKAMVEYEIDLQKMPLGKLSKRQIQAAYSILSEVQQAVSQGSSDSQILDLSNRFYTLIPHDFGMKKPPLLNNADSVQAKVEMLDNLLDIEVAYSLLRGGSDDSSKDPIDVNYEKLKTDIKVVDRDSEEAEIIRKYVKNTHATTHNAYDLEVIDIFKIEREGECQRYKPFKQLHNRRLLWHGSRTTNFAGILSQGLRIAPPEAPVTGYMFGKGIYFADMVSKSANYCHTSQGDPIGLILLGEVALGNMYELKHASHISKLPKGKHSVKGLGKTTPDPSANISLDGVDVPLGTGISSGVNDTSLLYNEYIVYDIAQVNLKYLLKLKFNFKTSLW
Recorded Metric: pKi
Give bare numbers, as −log10 of the molar value.

## Task // lookup pKi for O=c1[nH]c2ccc(CNC3CC3)cc2n2cccc12
## Result 7.51

###

Would you mind telling me the reported EC50 of each entry?
- System Tested: Poly [ADP-ribose] polymerase 1 (Homo sapiens)
Give bare numbers, in nM.

# example entries with known answers
## Task Tell me the measured EC50 of O=c1[nH]c2ccc(CN3CCCCC3)cc2n2cccc12 , please.
## Result 31

## Task Similarly, O=c1[nH]c2ccc(CNC3CC3)cc2n2cccc12 ?
## Result 25

## Task Also O=c1[nH]c2cc(CN3CCCC3)ccc2n2cccc12 ?
## Result 6

## Task And the next one, O=c1[nH]c2cc(CNCc3ccccc3)ccc2n2cccc12 ?
## Result 164

Then this compound:
## Task Data request, read-out EC50, for CN(C)Cc1ccc2c(c1)NC(=O)C1CCCN21 (stereo not given)
## Result 646
